assay: in vitro; settings: human, HEK293 viability, dose 6.3 µM; Mean of replicates
Test readout: viability (%)

Compound: C=C(C)[C@H]1Cc2c(ccc3c2O[C@@H]2COc4cc(OC)c(OC)cc4[C@@H]2C3=O)O1 [Rotenone, reference compound]
Value observed: 32.5

====

tested on: L1 wild-type C. elegans; details: drug + KCN, 25 µM, 15-hour, mean of replicates
Quick reference: KCN survival assay value relative to DMSO control, Mean of the listed items.
Test readout: KCN survival assay value relative to DMSO control, Mean

Compound: O=C(Nc1cc(Cl)cc(Cl)c1O)c1c(O)c(Cl)cc(Cl)c1Cl [Oxyclozanide]
Value observed: 0.000
//
Compound: O=C(Nc1ccc(Oc2ccc(Cl)cc2)c(Cl)c1)c1cc(I)cc(I)c1O [Rafoxanide]
Value observed: 0.000
//
Compound: O=C(Nc1ccc([N+](=O)[O-])cc1Cl)c1cc(Cl)ccc1O [Niclosamide]
Value observed: 0.020
//
Compound: Cc1cc(C(C#N)c2ccc(Cl)cc2)c(Cl)cc1NC(=O)c1cc(I)cc(I)c1O (stereo not shown)
Value observed: 0.0037

====

molecular target: C. elegans complex II (succinate dehydrogenase) (Caenorhabditis elegans, UniProt O62215+P41956+Q09545); experiment: In vitro complex II activity assay, C. elegans mitochondria; assay type: biochemical; details: 100 μM of NPD compound; C. elegans mitochondria; mean of four biological replicates
Sequence (P41956 30-182): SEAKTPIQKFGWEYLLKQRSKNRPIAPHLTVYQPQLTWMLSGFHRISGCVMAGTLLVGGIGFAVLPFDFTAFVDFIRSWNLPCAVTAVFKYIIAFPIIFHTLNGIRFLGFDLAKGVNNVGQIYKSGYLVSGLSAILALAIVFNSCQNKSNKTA
Sequence (Q09545 22-298): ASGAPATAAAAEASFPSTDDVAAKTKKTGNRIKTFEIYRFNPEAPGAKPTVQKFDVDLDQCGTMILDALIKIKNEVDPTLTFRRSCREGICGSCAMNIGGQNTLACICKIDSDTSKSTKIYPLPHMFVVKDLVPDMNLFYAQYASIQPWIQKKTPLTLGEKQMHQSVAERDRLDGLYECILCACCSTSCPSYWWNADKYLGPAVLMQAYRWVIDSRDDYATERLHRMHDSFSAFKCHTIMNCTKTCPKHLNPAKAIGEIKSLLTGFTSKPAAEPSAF
Sequence (Q09508 32-646, further chain): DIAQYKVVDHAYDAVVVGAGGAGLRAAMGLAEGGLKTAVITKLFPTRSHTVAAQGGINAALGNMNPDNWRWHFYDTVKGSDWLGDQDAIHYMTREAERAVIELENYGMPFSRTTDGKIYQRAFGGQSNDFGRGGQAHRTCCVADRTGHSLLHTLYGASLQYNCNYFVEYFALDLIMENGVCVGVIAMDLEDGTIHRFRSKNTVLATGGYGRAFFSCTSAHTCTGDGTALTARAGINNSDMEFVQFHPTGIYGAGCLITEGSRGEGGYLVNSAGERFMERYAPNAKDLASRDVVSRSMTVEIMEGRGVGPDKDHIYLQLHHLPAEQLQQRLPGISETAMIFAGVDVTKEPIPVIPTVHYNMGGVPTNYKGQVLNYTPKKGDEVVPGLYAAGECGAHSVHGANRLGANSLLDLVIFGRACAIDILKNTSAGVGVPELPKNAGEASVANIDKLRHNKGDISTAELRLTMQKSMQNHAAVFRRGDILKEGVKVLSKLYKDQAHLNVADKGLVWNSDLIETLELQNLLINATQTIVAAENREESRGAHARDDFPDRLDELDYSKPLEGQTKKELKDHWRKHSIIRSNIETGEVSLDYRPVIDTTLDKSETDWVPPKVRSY
Sequence (O62215 31-145): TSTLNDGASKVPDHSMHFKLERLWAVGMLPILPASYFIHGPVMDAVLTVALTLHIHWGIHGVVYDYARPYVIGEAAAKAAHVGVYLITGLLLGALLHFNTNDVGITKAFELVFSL
Test readout: Percent in vitro activity, Complex II (Mean) (%)

Compound: O=C1OC(c2ccccc2)=NC1=CC=Cc1ccccc1 (mixture of isomers) [NPD8298]
Value observed: 110.370
--
Compound: O=C(/C=C/c1ccccc1)/C=C/c1ccccc1 [FSL0005]
Value observed: 80.911
--
Compound: O=C(NCCc1ccc(Cl)cc1)c1ccccc1C(F)(F)F [Wact-11]
Value observed: 24.431
--
Compound: COc1ccc(N=c2cc(-c3ccc(OC)cc3)oc3ccc(O)cc23)cc1 [NPD8034]
Value observed: 89.016
--
Compound: Cc1cc(O)c(C(=O)/C=C/c2ccc(C(C)C)cc2)c(=O)o1 [NPD6240]
Value observed: 87.734

====

Biological target: C. elegans (N2) complex I (NADH:ubiquinone oxidoreductase) (Caenorhabditis elegans, UniProt P24887+Q93873+Q94360)
Sequence (Q94360 17-199): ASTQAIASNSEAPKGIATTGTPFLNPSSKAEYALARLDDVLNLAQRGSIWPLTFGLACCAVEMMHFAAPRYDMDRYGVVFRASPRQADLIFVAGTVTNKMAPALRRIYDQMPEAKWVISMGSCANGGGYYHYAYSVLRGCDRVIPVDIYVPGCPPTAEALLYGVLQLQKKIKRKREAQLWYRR
Sequence (P24887 whole entry): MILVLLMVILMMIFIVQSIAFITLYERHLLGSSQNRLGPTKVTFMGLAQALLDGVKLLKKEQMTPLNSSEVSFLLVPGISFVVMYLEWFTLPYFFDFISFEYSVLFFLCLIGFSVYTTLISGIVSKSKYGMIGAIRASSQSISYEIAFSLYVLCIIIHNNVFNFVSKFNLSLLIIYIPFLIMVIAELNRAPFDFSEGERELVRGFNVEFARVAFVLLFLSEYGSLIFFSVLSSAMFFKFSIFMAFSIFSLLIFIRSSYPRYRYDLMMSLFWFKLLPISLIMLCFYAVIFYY
Sequence (Q93873 31-482): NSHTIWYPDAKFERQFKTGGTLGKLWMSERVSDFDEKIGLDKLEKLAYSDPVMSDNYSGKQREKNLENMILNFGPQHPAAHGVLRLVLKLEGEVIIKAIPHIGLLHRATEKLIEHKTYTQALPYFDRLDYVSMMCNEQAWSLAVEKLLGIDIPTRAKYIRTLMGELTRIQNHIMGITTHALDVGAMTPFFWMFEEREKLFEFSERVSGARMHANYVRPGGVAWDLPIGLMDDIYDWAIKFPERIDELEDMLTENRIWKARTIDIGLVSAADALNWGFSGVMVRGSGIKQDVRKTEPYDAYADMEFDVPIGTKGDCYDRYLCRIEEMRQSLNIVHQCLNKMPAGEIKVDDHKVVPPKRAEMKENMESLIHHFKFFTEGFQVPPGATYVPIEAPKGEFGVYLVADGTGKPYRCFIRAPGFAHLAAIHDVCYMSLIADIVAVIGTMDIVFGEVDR
Experiment: biochemical
Format: biochemical
Conditions: dose 0.125 µM; wild-type C. elegans; single replicate; read-out: in vitro complex I activity relative to solvent control, individual replicate
Description: Mitochondria were isolated from the following free-living nematode strains: C. elegans—N2, CB3474, ECA882, ECA917, ECA1075, ECA1080; C. briggsae—AF16; P. pacificus—PS312; and P. hermaphrodita—B178. With the exception of the P. hermaphrodita strain B178, adult worms of each strain were grown in bulk through liquid culture to obtain mitochondria in sufficient quantities. […]
Test readout: remaining activity at 0.125 µM (%)

Compound: Cc1ccccc1OCCCCn1cnc2ccccc21
Value observed: 44.7

Compound: Cc1nc2ccccc2n1Cc1ccc(Cl)cc1
Value observed: 47

Compound: COC(=O)Nc1nc2ccc(Sc3ccccc3)cc2[nH]1 [fenbendazole, reference compound]
Value observed: 104

Compound: C=C(C)[C@H]1Cc2c(ccc3c2O[C@@H]2COc4cc(OC)c(OC)cc4[C@@H]2C3=O)O1 [Rotenone, reference compound]
Value observed: 17.8

====

Quick reference: activity at 75 µM of the listed items.
target: B. taurus (heart) complex I (Bos taurus, UniProt P03887+P17694+P42026); assay: biochemical; format: biochemical; conditions: Dose 75 µM; read-out: B. taurus mitochondrial complex I activity
Sequence (P03887 whole entry): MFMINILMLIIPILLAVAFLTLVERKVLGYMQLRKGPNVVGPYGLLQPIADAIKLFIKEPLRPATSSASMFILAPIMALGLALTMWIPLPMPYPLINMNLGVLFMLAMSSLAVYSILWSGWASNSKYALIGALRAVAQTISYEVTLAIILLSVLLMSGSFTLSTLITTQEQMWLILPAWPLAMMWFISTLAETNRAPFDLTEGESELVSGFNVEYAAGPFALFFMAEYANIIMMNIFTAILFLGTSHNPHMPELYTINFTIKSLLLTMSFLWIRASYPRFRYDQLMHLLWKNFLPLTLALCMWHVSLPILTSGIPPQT
Sequence (P17694 34-463): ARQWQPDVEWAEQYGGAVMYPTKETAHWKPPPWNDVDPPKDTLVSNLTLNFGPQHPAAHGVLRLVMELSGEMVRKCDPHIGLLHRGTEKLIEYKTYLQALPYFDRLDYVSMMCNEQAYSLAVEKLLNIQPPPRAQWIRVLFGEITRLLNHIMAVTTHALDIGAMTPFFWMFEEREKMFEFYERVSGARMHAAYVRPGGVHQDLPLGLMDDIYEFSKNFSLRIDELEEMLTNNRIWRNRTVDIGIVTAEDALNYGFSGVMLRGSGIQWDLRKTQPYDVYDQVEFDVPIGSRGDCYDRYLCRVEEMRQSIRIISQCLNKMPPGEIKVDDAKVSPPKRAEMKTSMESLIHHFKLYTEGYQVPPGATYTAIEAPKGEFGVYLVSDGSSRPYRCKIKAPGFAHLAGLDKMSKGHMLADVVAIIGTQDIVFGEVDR
Sequence (P42026 38-216): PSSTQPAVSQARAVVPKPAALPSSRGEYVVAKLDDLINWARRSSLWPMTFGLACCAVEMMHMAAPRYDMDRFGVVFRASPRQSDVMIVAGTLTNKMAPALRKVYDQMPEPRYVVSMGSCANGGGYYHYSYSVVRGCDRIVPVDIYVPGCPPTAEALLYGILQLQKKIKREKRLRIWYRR

Compound: Nc1nc2ccccc2n1Cc1ccc(Cl)cc1 [Compound 5652765]
activity at 75 µM (%): 0.3
//
Compound: CC(C)Oc1cccc(OCCn2cnc3ccccc32)c1 [Compound 7926496]
activity at 75 µM (%): 1.89
//
Compound: Cc1ccc(OCCn2cnc3ccccc32)cc1 [Compound 5671538]
activity at 75 µM (%): 14.5
//
Compound: Cc1cccc(OCCn2c(C)nc3ccccc32)c1 [Compound 6285199]
activity at 75 µM (%): 1.08
//
Compound: CCCOc1ccc(Cn2cnc3ccccc32)cc1 [Compound 7355741]
activity at 75 µM (%): 2.32

====

target: B. taurus (heart) complex I (Bos taurus, UniProt P03887+P17694+P42026); assay: biochemical; assay type: biochemical; settings: Dose 0.063 µM; read-out: B. taurus mitochondrial complex I activity
Binarize activity at 0.063 µM at 90%; below is met, at or above is not met.

Compound: Clc1ccc(Cn2cnc3ccccc32)cc1Cl
Assigned label: not met
//
Compound: Brc1ccccc1OCCCCn1cnc2ccccc21
Assigned label: not met
//
Compound: Cc1ccc(OCCn2cnc3ccccc32)c(C)c1
Assigned label: not met
//
Compound: Cc1ccccc1OCCCn1c(C)nc2ccccc21
Assigned label: not met
//
Compound: Cc1ccc(OCCn2cnc3ccccc32)cc1
Assigned label: not met
//
Compound: Cc1ccc(C(C)C)c(OCC(O)Cn2cnc3ccccc32)c1 (centres unmarked)
Assigned label: not met
//
Compound: Cc1nc2ccccc2n1Cc1ccc(Cl)c(Cl)c1
Assigned label: met
//
Compound: Clc1ccccc1OCCCCn1cnc2ccccc21
Assigned label: not met
//
Compound: Clc1ccc(SCCCCn2cnc3ccccc32)cc1
Assigned label: not met
//
Compound: Cc1ccc(SCCCCn2cnc3ccccc32)cc1
Assigned label: not met
//
Compound: Cc1ccc(SCCCn2cnc3ccccc32)cc1
Assigned label: not met
//
Compound: Cc1ccccc1OCCCCn1cnc2ccccc21
Assigned label: met
//
Compound: CCc1cc(OCCn2cnc3ccccc32)ccc1Cl
Assigned label: met
//
Compound: CC(C)Oc1cccc(OCCn2cnc3ccccc32)c1
Assigned label: met
//
Compound: FC(F)(F)c1cccc(OCCCCn2cnc3ccccc32)c1
Assigned label: met
//
Compound: CCCOc1ccc(Cn2cnc3ccccc32)cc1
Assigned label: met

====

Quick reference: viability at 2 days, 3.13 µM of the listed items.
assay: in vitro; settings: human, HEK293 cells (Flp-In-293), HEK293 viability, Dose 3.13 µM
Test readout: viability at 2 days, 3.13 µM (%)

Structure notation: Cc1ccc(OCCn2cnc3ccccc32)cc1
Test readout: viability at 2 days, 3.13 µM
Value observed: 92.2
--
Structure notation: Cc1ccccc1OCCCCn1cnc2ccccc21
Test readout: viability at 2 days, 3.13 µM
Value observed: 100
--
Structure notation: Cc1ccc(OCCn2cnc3ccccc32)c(C)c1
Test readout: viability at 2 days, 3.13 µM
Value observed: 100
--
Structure notation: Clc1ccc(Cn2cnc3ccccc32)c(Cl)c1
Test readout: viability at 2 days, 3.13 µM
Value observed: 95.5
--
Structure notation: Cc1ccc(SCCCCn2cnc3ccccc32)cc1
Test readout: viability at 2 days, 3.13 µM
Value observed: 88.6
--
Structure notation: Cc1nc2ccccc2n1CCOc1ccccc1Cl
Test readout: viability at 2 days, 3.13 µM
Value observed: 100
--
Structure notation: Clc1ccc(Cn2cnc3ccccc32)cc1Cl
Test readout: viability at 2 days, 3.13 µM
Value observed: 73.5
--
Structure notation: CCCOc1ccc(Cn2cnc3ccccc32)cc1
Test readout: viability at 2 days, 3.13 µM
Value observed: 99.8
--
Structure notation: Cc1nc2ccccc2n1CCOc1ccccc1
Test readout: viability at 2 days, 3.13 µM
Value observed: 100
--
Structure notation: Cc1cccc(OCCn2c(C)nc3ccccc32)c1
Test readout: viability at 2 days, 3.13 µM
Value observed: 100

====

target: B. taurus (heart) complex I (Bos taurus, UniProt P03887+P17694+P42026); assay: biochemical; type: biochemical; settings: log10 of IC50 in µM; B. taurus mitochondria
Decide by Log IC50 B. taurus complex I: equal to or exceeding 1 µM means fulfilled, less means not fulfilled.

Compound: Nc1nc2ccccc2n1Cc1ccc(Br)cc1 [Compound 7313068]
Assigned label: not fulfilled

Compound: CC(C)Cc1ccc(C(C)c2nc3ccccc3n2C)cc1 (stereo not shown) [NPD8790]
Assigned label: fulfilled

Compound: Cc1ccc(SCCCn2cnc3ccccc32)cc1 [Compound 7926035]
Assigned label: not fulfilled

Compound: CC(C)Cc1ccc(C(C)c2nc3ccccc3n2C(C)C)cc1 (stereo not shown) [STK951903]
Assigned label: fulfilled

Compound: FC(F)(F)c1cccc(OCCCCn2cnc3ccccc32)c1 [Compound 7925004]
Assigned label: fulfilled

Compound: Clc1ccc(OCCn2cnc3ccccc32)c(Cl)c1 [Compound 7221649]
Assigned label: fulfilled

Compound: Cc1nc2ccccc2n1Cc1ccc(Cl)cc1 [STK697993]
Assigned label: not fulfilled

Compound: Cc1nc2ccccc2n1Cc1ccc(C(C)C)cc1 [Compound 7353551]
Assigned label: not fulfilled

Compound: Cc1ccccc1OCCCn1c(C)nc2ccccc21 [Compound 7916923]
Assigned label: not fulfilled

Compound: Nc1nc2ccccc2n1CCCOc1ccccc1 [Compound 7915320]
Assigned label: fulfilled

Compound: CCCOc1ccc(Cn2cnc3ccccc32)cc1 [Compound 7355741]
Assigned label: not fulfilled

Compound: CCc1cc(OCCn2cnc3ccccc32)ccc1Cl [Compound 7925288]
Assigned label: not fulfilled

Compound: Clc1ccccc1OCCCCn1cnc2ccccc21 [Compound 7925804]
Assigned label: not fulfilled

Compound: Cc1ccc2nc(C(C)c3ccc(CC(C)C)cc3)[nH]c2c1 (stereo not shown) [STL482096]
Assigned label: fulfilled

Compound: Cc1nc2ccccc2n1Cc1ccccc1Cl [Compound 6707368]
Assigned label: not fulfilled

Compound: Cc1nc2ccccc2n1Cc1ccc(Cl)c(Cl)c1 [Compound 5655567]
Assigned label: not fulfilled

Compound: Nc1nc2ccccc2n1Cc1ccc(Cl)cc1 [Compound 5652765]
Assigned label: not fulfilled

Compound: CCn1c(C(C)c2ccc(CC(C)C)cc2)nc2ccccc21 (stereo not shown) [STK951902]
Assigned label: fulfilled

Compound: c1ccc(CCCCCCCCCCc2nc3ccccc3[nH]2)cc1 [STL442376]
Assigned label: not fulfilled

Compound: C=CCn1c(-c2ccc(N(C)C)cc2)nc2ccccc21 [Compound 6873298]
Assigned label: fulfilled

Compound: C=CCn1c(C(C)c2ccc(CC(C)C)cc2)nc2ccccc21 (stereo not shown) [STL020755]
Assigned label: fulfilled
